Test: Plasma pharmacokinetics of oral terameprocol, GATOR trial
Type: in vivo, human
Conditions: human, plasma, po, 2400 mg, Cmax, oral 2,400 mg fasted, cycle 1 day 1, mean ± SD
readout.type: Cmax (ng/mL)

| smiles.string | result |
| --- | --- |
| COc1ccc(C[C@@H](C)[C@@H](C)Cc2ccc(OC)c(OC)c2)cc1OC | 100 |
